tested on: SEM cells; assay: cell viability relative to DMSO control; higher = less cytotoxic; settings: HPLM + 10% dialyzed FBS; 48 h; 46.1 µM
property label: cell viability (%)
Please give a number only; it is taken to be in %.

Query: Given `CNc1nc(Nc2cnn([C@H]3CCN(C4COC4)C[C@@H]3F)c2Cl)ncc1C(F)(F)F` , report its cell viability on SEM cells.
Result: 26.5

Query: Given `O=C(N[C@H](CO)[C@H](O)c1ccc([N+](=O)[O-])cc1)C(Cl)Cl` , report its cell viability on SEM cells.
Result: 113

Query: Given `CNC(=O)c1ccc(Nc2cc(Nc3ccccc3[S+](=O)([O-])C(C)C)c3cc[nH]c3n2)nc1` , report its cell viability on SEM cells.
Result: 16.8

Query: Given Cc1ccccc1C(=O)Nc1ccc(C(=O)N2CCCC(O)c3cc(Cl)ccc32)c(C)c1 (centres undefined) , report its cell viability on SEM cells.
Result: 121

Query: Given `COC(=O)c1ccc2c(c1)NC(=O)/C2=C(\Nc1ccc(N(C)C(=O)CN2CCN(C)CC2)cc1)c1ccccc1` , report its cell viability on SEM cells.
Result: 23.8

Query: Given `c1nc2c(NC3CCCCC3)nc(Nc3ccc(N4CCOCC4)cc3)nc2[nH]1` , report its cell viability on SEM cells.
Result: 29.3

Query: Given `O=C(O)c1cccnc1Nc1cccc(C(F)(F)F)c1` , report its cell viability on SEM cells.
Result: 111

Query: Given `CCCCCCCCCCCCCC(=O)N[C@H](CO)[C@H](O)c1ccc([N+](=O)[O-])cc1` , report its cell viability on SEM cells.
Result: 2.38

Query: Given `Cc1cnc(Nc2ccc(F)cc2Cl)nc1-c1c[nH]c(C(=O)N[C@H](CO)c2cccc(Cl)c2)c1` , report its cell viability on SEM cells.
Result: 84.9

Query: Given `CCOC(=O)\C1=C\[C@]2(CC)CCCN3CCC4=C([C@H]23)[N]1C5=C4C=CC=C5` , report its cell viability on SEM cells.
Result: 80.7

Query: Given CCCCN(CCCC)CC(O)c1cc(Cl)cc2c1-c1ccc(Cl)cc1/C2=C/c1ccc(Cl)cc1 (centres undefined) , report its cell viability on SEM cells.
Result: 106

Query: Given `COC1=C(OCCCN2CCOCC2)C=C3N=CC=C(OC4=CC=C(C=C4F)\C5=C\N=C(\NC6=CC=C(F)C=C6)N(C)C5=O)C3=C1` , report its cell viability on SEM cells.
Result: 5.64

Query: Given `Nc1ccc([S+](=O)([O-])Nc2ccnn2-c2ccccc2)cc1` , report its cell viability on SEM cells.
Result: 93

Query: Given `CN1CC(=O)N2[C@H](c3ccc4c(c3)OCO4)c3[nH]c4ccccc4c3C[C@@H]2C1=O` , report its cell viability on SEM cells.
Result: 85.9

Query: Given `ClC/1=C(NCCN2CCOCC2)/C(=O)C3=C(C=CC=N3)C1=O` , report its cell viability on SEM cells.
Result: 4.66

Query: Given `Nc1ncnc2c1ncn2[C@@H]1O[C@H](CO)C[C@H]1O` , report its cell viability on SEM cells.
Result: 41.2

Query: Given `CC(C)OC(=O)[C@H](C)N[P@](=O)(OC[C@H]1O[C@@H](N2\C=C/C(=O)NC2=O)[C@](C)(F)[C@@H]1O)OC3=CC=CC=C3` , report its cell viability on SEM cells.
Result: 18.5

Query: Given `CC(=O)Oc1ccccc1C(=O)Nc1ncc([N+](=O)[O-])s1` , report its cell viability on SEM cells.
Result: 66.3

Query: Given `CC1=CC(=CC(=C1C\C2=N\CCN2)C)C(C)(C)C` , report its cell viability on SEM cells.
Result: 77.6

Query: Given `Cc1cc2c(C(N)=O)cccc2n1-c1nc2c(c(NCc3ccccc3)n1)COCC2` , report its cell viability on SEM cells.
Result: 3.03

Query: Given COc1ccc(C(=O)CC2(O)C(=O)Nc3c(Cl)ccc(Cl)c32)cc1 (centres undefined) , report its cell viability on SEM cells.
Result: 16.2

Query: Given CC[C@@H]([C@H](C)O)n1ncn(-c2ccc(N3CCN(c4ccc(OCC5CO[C@@](Cn6cncn6)(c6ccc(F)cc6F)C5)cc4)CC3)cc2)c1=O (some centres undefined) , report its cell viability on SEM cells.
Result: 82.7

Query: Given `CC#CCn1c(N2CCC[C@@H](N)C2)nc2c1c(=O)n(Cc1nc(C)c3ccccc3n1)c(=O)n2C` , report its cell viability on SEM cells.
Result: 83.3

Query: Given `COc1cc[nH]c2ncc(C(=O)C(=O)N3CCN(C(=O)c4ccccc4)C[C@H]3C)c1-2` , report its cell viability on SEM cells.
Result: 109

---

tested on: P12-Ichikawa; test: cell viability relative to DMSO control; higher = less cytotoxic; details: RPMI 5 mM glucose + 10% dialyzed FBS; 48 h; 0.00702 µM
Please respond with reported cell viability for every item in the list.
Please give a number only; it is taken to be in %.

Query: Supply cell viability value. Item: CC(N[C@H]1CCCC[C@@H]1NC(=O)c1ccc(Cl)cc1)c1cccc2ccccc12 (some centres undefined)
Result: 109

Query: Supply cell viability value. Item: `CCCCOc1c(C(=O)c2c(F)cc(C)cc2F)cnc2[nH]ncc12`
Result: 102

Query: Supply cell viability value. Item: CCCCN(CCCC)CC(O)c1cc(Cl)cc2c1-c1ccc(Cl)cc1/C2=C/c1ccc(Cl)cc1 (centres undefined)
Result: 101

Query: Supply cell viability value. Item: `Cc1coc2c1C(=O)C(=O)c1c-2ccc2c1CCCC2(C)C`
Result: 103

Query: Supply cell viability value. Item: `CCc1ccc(/C=C2/SC(=S)NC2=O)cc1`
Result: 81.7

Query: Supply cell viability value. Item: `CC(C)OC(=O)[C@H](C)N[P@](=O)(OC[C@H]1O[C@@H](N2\C=C/C(=O)NC2=O)[C@](C)(F)[C@@H]1O)OC3=CC=CC=C3`
Result: 106

Query: Supply cell viability value. Item: `Cc1cccc(Nc2ccncc2[S+](=O)([O-])NC(=O)NC(C)C)c1`
Result: 93.1

Query: Supply cell viability value. Item: `C[C@]12CC[C@H]3[C@@H](CCC4=CC(=O)CC[C@@H]43)[C@@H]1CC[C@@H]2OC(=O)CCc1ccccc1`
Result: 112

Query: Supply cell viability value. Item: `CCCCCCCCCCCCCC(=O)N[C@H](CO)[C@H](O)c1ccc([N+](=O)[O-])cc1`
Result: 90.9

---

system: NOMO1; assay: cell viability relative to DMSO control; higher = less cytotoxic; conditions: HPLM + 10% dialyzed FBS; 48 h; 5.12 µM
property label: cell viability (%)
Please give a number only; it is taken to be in %.

Query: Supply cell viability value. Item: `COc1cc2c(cc1OC)CN(CCc1ccc(NC(=O)c3cc(OC)c(OC)cc3NC(=O)c3cnc4ccccc4c3)cc1)CC2`
Result: 114

Query: Supply cell viability value. Item: `COc1c(C)c2c(c(O)c1C/C=C(\C)CCC(=O)O)C(=O)OC2`
Result: 86.7

Query: Supply cell viability value. Item: `Oc1nc(-c2ccc(C(F)(F)F)cc2)nc2c1CSCC2`
Result: 118

Query: Supply cell viability value. Item: C=C[C@H]1CN2CCC1C[C@@H]2C(O)c1ccnc2ccc(OC)cc12 (some centres undefined)
Result: 105

---

test system: SEM cells; assay: AUC of viability dose-response curve (% viability x log10 dose units); higher = less sensitive; conditions: RPMI 5 mM glucose + 10% FBS; 48 h
Please respond with reported AUC of viability dose-response curve for every item in the list.
# answer = number (no unit)

Query: Supply AUC of viability dose-response curve value. Item: `O=C(N[C@H](CO)[C@H](O)c1ccc([N+](=O)[O-])cc1)C(Cl)Cl`
Result: 475

Query: Supply AUC of viability dose-response curve value. Item: `CCCNC(=O)Nc1ccc(Oc2ncnc3cc(OC)c(OC)cc23)cc1Cl`
Result: 402

Query: Supply AUC of viability dose-response curve value. Item: `N[C@@H]1CONC1=O`
Result: 443

Query: Supply AUC of viability dose-response curve value. Item: `O=C(O)CCNC(=O)c1ccc(/N=N/c2ccc(O)c(C(=O)O)c2)cc1`
Result: 454

Query: Supply AUC of viability dose-response curve value. Item: `CCCCOc1c(C(=O)c2c(F)cc(C)cc2F)cnc2[nH]ncc12`
Result: 410

Query: Supply AUC of viability dose-response curve value. Item: O=C(c1ccccc1)c1ccc2n1CCC2C(=O)O (stereo unspecified)
Result: 421

---

system: SEM cells; experiment: cell viability relative to DMSO control; higher = less cytotoxic; settings: RPMI 5 mM glucose + 10% FBS; 48 h; 0.000781 µM
property label: cell viability (%)
Please give a number only; it is taken to be in %.

Query: Supply cell viability value. Item: `Cc1ccc([S+](=O)([O-])OCC(=O)Nc2ccc(C(=O)O)c(O)c2)cc1`
Result: 107

Query: Supply cell viability value. Item: `Nc1ncnc2c1c(-c1cccc(OCc3ccccc3)c1)cn2[C@H]1C[C@@H](CN2CCC2)C1`
Result: 110

Query: Supply cell viability value. Item: `CCCNC(=O)Nc1ccc(Oc2ncnc3cc(OC)c(OC)cc23)cc1Cl`
Result: 118

Query: Supply cell viability value. Item: `CCCCOc1c(C(=O)c2c(F)cc(C)cc2F)cnc2[nH]ncc12`
Result: 104

Query: Supply cell viability value. Item: `COC1=CC=C(C(=C1)OC(C)C)C/2=N/[C@@H]([C@@H](N2C(=O)N3CCNC(=O)C3)C4=CC=C(Cl)C=C4)C5=CC=C(Cl)C=C5`
Result: 100

Query: Supply cell viability value. Item: OCC(O)C(O)C(O)CO (stereo not given)
Result: 89

Query: Supply cell viability value. Item: COc1ccc(C(=O)CC2(O)C(=O)Nc3c(Cl)ccc(Cl)c32)cc1 (stereo not given)
Result: 75.7

Query: Supply cell viability value. Item: `N[C@@H]1CONC1=O`
Result: 91.3

Query: Supply cell viability value. Item: `COc1ccc(C(=O)c2c(C)n(CCN3CCOCC3)c3cc(I)ccc23)cc1`
Result: 88

Query: Supply cell viability value. Item: `CCc1ccc(/C=C2/SC(=S)NC2=O)cc1`
Result: 78

Query: Supply cell viability value. Item: C=C[C@H]1CN2CCC1C[C@@H]2C(O)c1ccnc2ccc(OC)cc12 (stereo not given in full)
Result: 67.5

Query: Supply cell viability value. Item: `Cc1ccnc2c1NC(=O)c1cccnc1N2C1CC1`
Result: 83.7

Query: Supply cell viability value. Item: `COc1cc[nH]c2ncc(C(=O)C(=O)N3CCN(C(=O)c4ccccc4)C[C@H]3C)c1-2`
Result: 115

Query: Supply cell viability value. Item: COc1ccc2c(c1)[C@]13CCCCC1C(C2)N(C)CC3 (stereo not given in full)
Result: 106

Query: Supply cell viability value. Item: `CCOC(=O)\C1=C\[C@]2(CC)CCCN3CCC4=C([C@H]23)[N]1C5=C4C=CC=C5`
Result: 103

Query: Supply cell viability value. Item: `O=C(O)C(=O)c1cn(Cc2ccccc2)c2ccc(-c3ccc(OC(F)(F)F)cc3)cc12`
Result: 119

Query: Supply cell viability value. Item: `CNc1nc(Nc2cnn([C@H]3CCN(C4COC4)C[C@@H]3F)c2Cl)ncc1C(F)(F)F`
Result: 103

Query: Supply cell viability value. Item: O=C(CCCN1CCN(c2ccc(F)cc2)CC1)NC1c2ccccc2CSc2ccccc21 (stereo not given)
Result: 128

Query: Supply cell viability value. Item: `CC[C@H]1OC(=O)[C@H](C)C(=O)[C@H](C)[C@@H](O[C@H]2O[C@H](C)C[C@H](N(C)C)[C@H]2O)[C@](C)(OC)C[C@@H](C)C(=O)[C@H](C)[C@H]2N(CCCCn3cnc(-c4cccnc4)c3)C(=O)O[C@]12C`
Result: 95.6

Query: Supply cell viability value. Item: `COC1=C(OCCCN2CCOCC2)C=CC\3=C1/N=C(/NC(=O)C4=CN=C(N)N=C4)N5CC/N=C35`
Result: 128
